These data points were gathered from patent US20250313563A1.

# assayed target: GSK3α (GST-full length GSK3α) (Homo sapiens (Human))
# Sequence (P49840 whole entry): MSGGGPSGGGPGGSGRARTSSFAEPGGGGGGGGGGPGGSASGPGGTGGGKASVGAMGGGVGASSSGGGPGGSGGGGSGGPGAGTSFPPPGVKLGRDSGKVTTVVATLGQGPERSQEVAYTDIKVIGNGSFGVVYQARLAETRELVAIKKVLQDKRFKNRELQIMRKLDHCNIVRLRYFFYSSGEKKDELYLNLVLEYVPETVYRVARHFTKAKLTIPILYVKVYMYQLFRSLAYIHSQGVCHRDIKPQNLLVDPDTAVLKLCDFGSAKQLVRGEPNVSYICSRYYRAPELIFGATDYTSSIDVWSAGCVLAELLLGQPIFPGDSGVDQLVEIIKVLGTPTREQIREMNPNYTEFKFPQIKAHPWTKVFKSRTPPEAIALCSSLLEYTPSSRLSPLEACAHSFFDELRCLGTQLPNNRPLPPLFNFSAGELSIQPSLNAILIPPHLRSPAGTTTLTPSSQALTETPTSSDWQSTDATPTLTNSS
# test: GSK3α TR-FRET kinase assay
# Format: biochemical
# measurement context: 1 nM GSK3α, 4 μM ATP, 30 minute preincubation; geometric mean; read-out: GSK3-A TR-FRET BIOCHEMICAL (TR-FRET); GMean; IC50
pIC50: −log10 of the molar value.
// reported pIC50 for each item listed
readout label: pIC50

{"columns": ["molecule", "readout label", "data value"],
 "data": [
  ["CC[C@]1(c2ccccc2)C2=C(C[C@]3(CCCOC3)CC2=O)Nc2n[nH]cc21", "pIC50", "< 5.30"],
  ["CC[C@@]1(c2ccccc2)C2=C(CC(C)(C)[C@H](F)C2=O)Nc2n[nH]cc21", "pIC50", "< 5.30"],
  ["CCC1(c2cccc(N(C)c3ncccn3)c2)C2=C(CC(C)(C)NC2=O)Nc2n[nH]c(C(F)(F)F)c21 (stereo not shown)", "pIC50", "≥ 7.00"],
  ["CC[C@@]1(c2ccccc2)C2=C(C[C@@](C)(C(F)(F)F)CC2=O)Nc2n[nH]cc21", "pIC50", "< 5.30"]
]}

====

The following compounds are listed with their measured IC50 values.
# assayed target: GSK3b (GST-full length GSK3b) (Homo sapiens (Human), UniProt P49841)
# Sequence (P49841 whole entry): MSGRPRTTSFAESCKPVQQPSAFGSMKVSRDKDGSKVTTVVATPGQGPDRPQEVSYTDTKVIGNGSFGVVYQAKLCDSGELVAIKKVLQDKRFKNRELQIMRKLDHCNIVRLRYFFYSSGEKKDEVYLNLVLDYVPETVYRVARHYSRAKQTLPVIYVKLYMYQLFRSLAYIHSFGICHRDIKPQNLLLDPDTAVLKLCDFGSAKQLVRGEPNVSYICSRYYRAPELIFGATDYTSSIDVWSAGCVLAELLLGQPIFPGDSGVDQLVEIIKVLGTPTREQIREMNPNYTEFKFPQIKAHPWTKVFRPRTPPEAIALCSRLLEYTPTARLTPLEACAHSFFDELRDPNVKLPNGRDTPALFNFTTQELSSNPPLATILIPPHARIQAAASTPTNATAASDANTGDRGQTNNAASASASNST
# test: GSK3b TR-FRET kinase assay
# Format: biochemical
# measurement context: 1 nM GSK3b, 2 μM ATP, 30 minute preincubation; read-out: GSK3-B TR-FRET BIOCHEMICAL (TR-FRET); IC50
# Method: TR-FRET Assay: The assay was performed in a white, 384 well, low volume, flat bottom plate (Grenier). After a 30 minute preincubation in assay buffer with the indicated concentration of compound, the kinase activity was initiated by the addition of the substrates. […] After 60 min at room temperature the plate was read on Envision plate reader using Ex: 340 nm, Em: 615 nm and […]. The normalized 665/615 Signal ratio versus log compound concentration was analyzed by XLFIT to yield IC50 values.

{"columns": ["compound", "IC50"],
 "data": [
  ["CC[C@]1(c2cccc(C(F)(F)F)c2)C2=C(Nc3n[nH]cc31)[C@H](C)CN(C)C2=O", "> 5000 nM"],
  ["CC1(C)CC(=O)C2=C(C1)Nc1n[nH]cc1C21COC2(CN(C(=O)CC3CC3)C2)C1 (stereo not shown)", "≤ 100 nM"],
  ["CC(=O)N1C[C@@]2(C[C@@]3(CO2)C2=C(CC(C)(C)CC2=O)Nc2n[nH]cc23)[C@@H]1C", "≤ 100 nM"],
  ["CC1(C)CC(=O)C2=C(C1)Nc1n[nH]cc1C21CC2(CCOCC2)C1", "≤ 100 nM"]
]}

====

# assayed target: GSK3b (GST-full length GSK3b) (Homo sapiens (Human), UniProt P49841)
# test: GSK3b TR-FRET kinase assay
# Assay type: biochemical
# measurement context: 1 nM GSK3b, 2 μM ATP, 30 minute preincubation, Table 16; read-out: GSK3-B TR-FRET BIOCHEMICAL (TR-FRET); IC50

{"columns": ["molecule", "IC50"],
 "data": [
  ["CC[C@]1(c2cccc(C(F)(F)F)c2)C2=C(CCN(c3cnn(C)c3)C2=O)Nc2n[nH]cc21", "> 5 µM"],
  ["CC[C@@]1(c2cccc(-c3cnn(C)c3)c2)C2=C(CC(C)(C)C2=O)Nc2n[nH]cc21", "1 to 5 µM"],
  ["CC[C@@]1(c2cccc(-c3ccnc(C)c3)c2)C2=C(CC(C)(C)NC2=O)Nc2n[nH]c(Cl)c21", "≤ 0.1 µM"],
  ["CC[C@]1(c2cccc(C(F)(F)F)c2)C2=C(Nc3n[nH]cc31)c1ccccc1C2=O", "≤ 0.1 µM"],
  ["CC[C@@]1(c2cccc(-c3cncn3C)c2)C2=C(CC(C)(C)CC2=O)Nc2n[nH]c(C)c21", "≤ 0.1 µM"],
  ["CCC1(c2cccc(-c3ccnc(C)c3)c2)C2=C(CC(C)(C)CC2=O)Nc2n[nH]c(C)c21 (stereo not shown) [Compound 913051]", "> 5 µM"],
  ["C[C@@H]1C[C@]2(CCO1)C1=C(CC(C)(C)CC1=O)Nc1n[nH]cc12", "1 to 5 µM"]
]}
